- system-under-test: mPGES-1 Mouse enzyme (Mus musculus, UniProt Q9JM51)
- Construct: made in house; host or cells: FreeStyle 293-F cells, crude microsomal preparation
- Sequence (Q9JM51 1-153): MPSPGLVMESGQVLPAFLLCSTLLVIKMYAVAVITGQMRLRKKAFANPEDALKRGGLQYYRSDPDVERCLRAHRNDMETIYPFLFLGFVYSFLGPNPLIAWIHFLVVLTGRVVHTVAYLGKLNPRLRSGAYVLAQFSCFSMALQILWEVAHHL
- procedure-text: mPGES-1 enzyme activity assay (PGE2 enzyme immunoassay), mouse enzyme
- Format: biochemical
- experimental-conditions: IC50 against mPGES-1, Mouse enzyme, recombinant microsomal enzyme; means ± SD, triplicate
endpoint: IC50 (nM)
Numeric answer only, unit nM assumed.

Below, 5 molecules whose answers are already recorded.
CCCCCCCCOc1ccc(-c2nn(-c3ccccc3)cc2C=C2C(=O)NC(=O)NC2=O)cc1 ... 2160
O=C1NC(=O)C(Cc2ccc(OCCCCC3CCCCC3)c([N+](=O)[O-])c2)C(=O)N1 ... 3350
O=C1NC(=O)C(=Cc2ccc(OCCCCc3ccccc3)c(Cl)c2)C(=O)N1 ... 2790
CCCCCCOc1ccc(-c2nn(-c3ccc(Cl)cc3)cc2C=C2C(=O)NC(=S)NC2=O)cc1 ... 1770
COc1ccc(C=C2C(=O)NC(=O)NC2=O)cc1OCCCCC1CCCCC1 ... 727

Shift focus to the following entry.
# input Please give the measured IC50 for this molecule: O=C1NC(=O)C(=Cc2ccc(OCCCCC3CCCCC3)c3ccccc23)C(=O)N1
# output 3700
